- assay_context: in n-butanol, 273.15 K
assay_readout: solubility (mole fraction)
Form field (numeric): enter value without unit.

Any idea what solubility (mole fraction) was measured for `CCCSc1nc(N[C@@H]2C[C@H]2c2ccc(F)c(F)c2)c2nnn([C@@H]3C[C@H](OCCO)[C@@H](O)[C@H]3O)c2n1` ?
0.00289

* * *

- assay_context: in n-propanol, 303.15 K
assay_readout: solubility (mole fraction)
The reply should be a number, written without any unit.

Return reported solubility (mole fraction); argument: `CCCSc1nc(N[C@@H]2C[C@H]2c2ccc(F)c(F)c2)c2nnn([C@@H]3C[C@H](OCCO)[C@@H](O)[C@H]3O)c2n1`
0.00692

* * *

- assay_context: in methanol, 313.15 K
assay_readout: solubility (mole fraction)
Write no unit; give the number alone.

For the compound `CCCSc1nc(N[C@@H]2C[C@H]2c2ccc(F)c(F)c2)c2nnn([C@@H]3C[C@H](OCCO)[C@@H](O)[C@H]3O)c2n1` , what solubility (mole fraction) is on record?
0.0239

* * *

- assay_context: in isopropanol, 293.15 K
assay_readout: solubility (mole fraction)

For the compound shown here, `CCCSc1nc(N[C@@H]2C[C@H]2c2ccc(F)c(F)c2)c2nnn([C@@H]3C[C@H](OCCO)[C@@H](O)[C@H]3O)c2n1` , give the reported solubility (mole fraction).
0.00404

* * *

- assay_context: in methanol, 308.15 K
assay_readout: solubility (mole fraction)
Just the number.

Entry `CCCSc1nc(N[C@@H]2C[C@H]2c2ccc(F)c(F)c2)c2nnn([C@@H]3C[C@H](OCCO)[C@@H](O)[C@H]3O)c2n1` : reported solubility (mole fraction) = ?
0.0203

* * *

- assay_context: in n-butanol, 298.15 K
assay_readout: solubility (mole fraction)
Could you keep your reply to the number by itself?

Consider the compound `CCCSc1nc(N[C@@H]2C[C@H]2c2ccc(F)c(F)c2)c2nnn([C@@H]3C[C@H](OCCO)[C@@H](O)[C@H]3O)c2n1` and give its measured solubility (mole fraction).
0.00768

* * *

- assay_context: in cyclohexanone, 278.15 K
assay_readout: solubility (mole fraction)
Answer with the value's number alone.

I am curious: what solubility (mole fraction) value has been reported for `CCCSc1nc(N[C@@H]2C[C@H]2c2ccc(F)c(F)c2)c2nnn([C@@H]3C[C@H](OCCO)[C@@H](O)[C@H]3O)c2n1` ?
0.0316

* * *

- assay_context: in n-propanol, 308.15 K
assay_readout: solubility (mole fraction)

Which solubility (mole fraction) value belongs to `CCCSc1nc(N[C@@H]2C[C@H]2c2ccc(F)c(F)c2)c2nnn([C@@H]3C[C@H](OCCO)[C@@H](O)[C@H]3O)c2n1` ?
0.00776

* * *

- assay_context: in n-propanol, 273.15 K
assay_readout: solubility (mole fraction)
Lab note: record the figure alone, no unit after it.

// query solubility (mole fraction) value for entry `CCCSc1nc(N[C@@H]2C[C@H]2c2ccc(F)c(F)c2)c2nnn([C@@H]3C[C@H](OCCO)[C@@H](O)[C@H]3O)c2n1`
0.00268

* * *

- assay_context: in isopropanol, 313.15 K
assay_readout: solubility (mole fraction)

# get_value(readout='solubility (mole fraction)', item= `CCCSc1nc(N[C@@H]2C[C@H]2c2ccc(F)c(F)c2)c2nnn([C@@H]3C[C@H](OCCO)[C@@H](O)[C@H]3O)c2n1` )
0.00599

Attribution: BigSolDB 2.1
